# study target: T1, extracellular domain of hIFNGR2 (human, UniProt P38484 28-247, conjugated to Alexa647 (site not stated))
# T1 construct: also called hIFNGR2-ECD; human IFNGR2 ECD
# T1 sequence: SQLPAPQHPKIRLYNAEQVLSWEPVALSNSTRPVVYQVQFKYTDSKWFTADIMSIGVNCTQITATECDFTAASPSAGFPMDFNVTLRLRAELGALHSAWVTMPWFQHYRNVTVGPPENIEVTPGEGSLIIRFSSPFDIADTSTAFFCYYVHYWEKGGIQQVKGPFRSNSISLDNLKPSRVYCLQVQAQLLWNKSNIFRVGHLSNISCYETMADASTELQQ
# assay overview: flow cytometry, yeast-displayed VHH, 100 nM Alexa647-conjugated antigen
value kind: binding result

[[record]]
binder = "DR935 (VHH, also called anti-IFNGR2 sdAb VHH DR935) VHH: QVQLVESGGGLVQAGGSLRLSCAASGRAFSTYALGWFRQAPGKEREFIAAISRGGGSTDYADSVKGRFTISRDNAKSTVYLQMNSLKPEDTAVYYCAARSYSSSYYYSQYEYDYWGQGTQVTVSS"
measured_result = "binds"

[[record]]
binder = "DR933 (VHH, also called anti-IFNGR2 sdAb VHH DR933) VHH: QVQLVESGGGLVQPGDSLRLSCVASGGTISSLAMGWFRQAPGKEREFVAAISWSGRSTYYVDSVKGRFTISTDNAKNTVYLQMNSLKPEDTAVYYCVAGEDGHSEYDYWGQGTQVTVSS"
measured_result = "binds"

